Numbers sourced from patent US20120237528A1.

- measured-on: T1, recombinant extracellular domain (ECD) of human TF, amino acid 1-219 of the mature chain, C-terminal His6-tag (human, UniProt P13726 33-251)
- T1 construct: expressed in a mammalian system; used for ELISA and Biacore; biotinylated by NHS-ester for the Fab ELISA; also called His6-TF-ECD1-219; HumanTF1-219
- protocol-details: Biacore
Could you please report measured pKd for the items listed next?
The read-out pKd is expressed as -log10 of concentration in moles per litre.

Asked: pKd lookup needed for M58 (antibody, V domains shown, complete MAb; FR4 is its own entry; also called H22/L2) VH: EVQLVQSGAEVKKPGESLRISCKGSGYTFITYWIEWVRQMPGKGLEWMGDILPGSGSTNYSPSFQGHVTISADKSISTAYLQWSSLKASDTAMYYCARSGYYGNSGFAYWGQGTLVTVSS VL: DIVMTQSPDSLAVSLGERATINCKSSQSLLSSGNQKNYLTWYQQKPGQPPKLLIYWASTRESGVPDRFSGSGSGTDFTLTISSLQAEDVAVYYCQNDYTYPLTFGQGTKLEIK , thanks.
Given back: 9.70

Asked: Any idea what its pKd is? The binder is M12 (antibody, V domains shown, complete MAb; FR4 is its own entry; also called H15/L5) VH: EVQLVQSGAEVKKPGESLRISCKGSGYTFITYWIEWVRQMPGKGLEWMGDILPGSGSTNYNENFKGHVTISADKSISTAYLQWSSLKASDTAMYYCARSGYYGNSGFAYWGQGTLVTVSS VL: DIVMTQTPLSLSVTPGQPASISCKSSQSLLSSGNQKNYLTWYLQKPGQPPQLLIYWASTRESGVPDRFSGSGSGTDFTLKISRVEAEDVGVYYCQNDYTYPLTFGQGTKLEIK
Given back: 9.26

Asked: Look up pKd: M60 (antibody, V domains shown, complete MAb; FR4 is its own entry; also called H22/L4) VH: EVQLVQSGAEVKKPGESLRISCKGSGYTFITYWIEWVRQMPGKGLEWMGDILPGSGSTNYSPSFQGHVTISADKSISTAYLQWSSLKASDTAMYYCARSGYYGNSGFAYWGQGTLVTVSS VL: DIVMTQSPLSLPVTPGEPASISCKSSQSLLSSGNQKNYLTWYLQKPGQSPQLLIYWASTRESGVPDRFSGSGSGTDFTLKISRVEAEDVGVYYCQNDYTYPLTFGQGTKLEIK
Given back: 9.33

Asked: If you can, please state the reported pKd value of M16 (antibody, V domains shown, complete MAb; FR4 is its own entry; also called H16/L2) VH: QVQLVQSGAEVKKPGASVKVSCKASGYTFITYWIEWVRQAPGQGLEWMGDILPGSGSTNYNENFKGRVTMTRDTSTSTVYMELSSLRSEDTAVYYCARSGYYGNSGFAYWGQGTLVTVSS VL: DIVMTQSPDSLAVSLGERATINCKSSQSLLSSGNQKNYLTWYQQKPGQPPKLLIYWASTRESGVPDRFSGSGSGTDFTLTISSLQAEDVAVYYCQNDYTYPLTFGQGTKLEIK .
Given back: 9.18
